Tested on: E. multilocularis metacestode vesicles
Assay: Phosphoglucose isomerase (PGI) release assay (damage-marker release) on metacestode vesicles
Type: cell-based, Echinococcus multilocularis
Conditions: overview screen, 10 μM, singlets, 5 days, relative to 0.1 % Triton X-100, DMSO subtracted
parameterMeasured: PGI d5 (relative PGI release)
Answer format: value, then unit.

Give PGI d5 (relative PGI release) for each of the items listed below.
1. COC(=O)Nc1nc2ccc([S+]([O-])c3ccccc3)cc2[nH]1 (centres unmarked) [oxfendazole, reference compound]
2. O=C(O)CSc1cc(NS(=O)(=O)c2cccc3cccnc23)c2ccccc2c1O

Solution:
-1.521%
-0.1296%

====

System: E. multilocularis metacestode vesicles
Experiment: Phosphoglucose isomerase (PGI) release assay (damage-marker release) on metacestode vesicles
Format: cell-based, Echinococcus multilocularis
Details: overview screen, 10 μM, singlets, 5 days, relative to 0.1 % Triton X-100, DMSO subtracted
Could you please report measured PGI d5 (relative PGI release) for the items listed next?
One number for each entry, in %.

COc1ccc(C[C@@H](C)[C@@H](C)Cc2ccc(OC)c(OC)c2)cc1OC; 0.565
COc1ccc(SCC(=O)N2c3ccccc3Sc3ccccc32)cc1; -3.455
CN1CCN(Cc2ccc(-c3cnc4[nH]cc(-c5ccc6[nH]ccc6c5)c4c3)cc2)CC1; 0.2177
Cc1[nH]c2ccccc2c1CCNCc1ccc(/C=C/C(=O)NO)cc1; 1.148
COc1ccccc1CN[C@H]1C2CCN(CC2)[C@H]1C(c1ccccc1)c1ccccc1; -0.6012

Give PGI d5 (relative PGI release) for each of the items listed below.
1. O=C(Nc1cccc(C2=NCCN2)c1)c1ccc(-c2ccc(C(=O)Nc3cccc(C4=NCCN4)c3)cc2)cc1
2. Nc1nc(O)c(Br)c(-c2cccc(Cl)c2)n1
3. CCc1oc2ccccc2c1C(=O)c1ccc(O)cc1
4. C[C@H](Cn1cnc2c(N)ncnc21)OCP(=O)(O)O
5. Nc1nc(NC2Cc3ccc(F)cc3C2)nc(N2CCCCC2)n1 (stereo not shown)

Solution:
1: 0.237; 2: -0.1718; 3: -2.405; 4: 0.0562; 5: -3.67

====

Could you please report measured pIC50 for the items listed next?
Tested on: Reuber rat hepatoma (RH) cells
Experiment: Mammalian cell toxicity, resazurin assay
Format: cell-based
Conditions: Rattus norvegicus, 120 h, confluent, 5 days incubation, mean ± SD; read-out: IC50 confluent RH cells
Numbers only, as −log10 of the molar value.

The examples below pair each entry with its known result.
CCCCC(CC)CNC(=N)NC(=N)NCCCCCCNC(=N)NC(=N)NCC(CC)CCCC (stereo not drawn) [alexidine, reference compound]; 5.22
Cc1cc(O)c2c(c1)C(=O)c1c(I)c(C)c(I)c(O)c1C2=O [MMV1581545]; 4.67

Kindly consider the entry below.
Exercise: Write pIC50 of CC(C)(C)c1cc(C(=O)/C(C#N)=N/Nc2cccc(Cl)c2)no1 [ESI-09] ; system used: Reuber rat hepatoma (RH) cells
Solution: 4.43

====

System: E. multilocularis metacestode vesicles
Test: Phosphoglucose isomerase (PGI) release assay (damage-marker release) on metacestode vesicles
Assay type: cell-based, Echinococcus multilocularis
Conditions: overview screen, 10 μM, singlets, 5 days, relative to 0.1 % Triton X-100, DMSO subtracted
parameterMeasured: PGI d5 (relative PGI release) (%)
Answers are plain numbers, in %.

The examples below pair each entry with its known result.
COc1c(F)c(F)cc2c(=O)c(C(=O)O)cn(C3CC3)c12 [MMV1480967]; 0.2423
CC1=C(/C=C/C(C)=C/C=C/C(C)=C/C(=O)Nc2ccc(O)cc2)C(C)(C)CCC1 [MMV001793]; 0.1304
O=C(NNC(=S)Nc1ccc(Cl)cc1)c1ccncc1 [MMV1782227]; 3.665
NC(=O)C(c1ccccc1)(c1ccccc1)[C@H]1CCCN(CCc2ccc3c(c2)CCO3)C1 [MMV1782412]; 1.533

Give PGI d5 (relative PGI release) for each of the items listed below.
1. Cc1nc2ccc(Cl)cc2c(-c2ccccc2)c1CC(=O)O [MMV1580801]
2. COc1ccc(SC(=O)N[C@H](CCC(=O)O)C(=O)O)cc1 [MMV1580846]
3. CCc1cc(O)c(Oc2ccc(C(N)=O)cc2F)cc1F [MMV1578564]
4. Nc1nc(-c2ccccc2)nc2[nH]nc(Nc3ccc(C(F)(F)F)cc3)c12 [MMV1633968]

Solution:
6.482
-0.9041
19.4124
0.2239

Give PGI d5 (relative PGI release) for each of the items listed below.
1. O=C(Nc1ncc(Cc2cccc3ccccc23)s1)C1CCCCC1 [MMV1593532]
2. Cc1c[nH]c(=O)nc1NCc1ccccc1 [MMV1582489]
3. O=C(/C=C\n1cnc(-c2cc(C(F)(F)F)cc(C(F)(F)F)c2)n1)NNc1ccccn1 [MMV1580493]
4. CN(C)CC(=O)Nc1ccc2[nH]c(=O)c3ccccc3c2c1 [MMV1580480]

Solution:
[-1.117, -0.6323, 1.061, -0.09241]

Give PGI d5 (relative PGI release) for each of the items listed below.
1. O=C(CP(=O)(O)O)NCCc1cccc(Oc2ccccc2)c1 [MMV1579787]
2. CCNC(=O)Nc1cn2c(-c3ncc(CC)cn3)cc(-c3cccnc3)cc2n1 [MMV1782403]

Solution:
1: -1.804; 2: -2.559

Give PGI d5 (relative PGI release) for each of the items listed below.
1. O=c1oc2ccc(Br)cc2cc1CSc1ncc[nH]1 [MMV1782105]
2. C(=C\c1nc2ccccc2[nH]1)/c1ccc2c(c1)OCO2 [MMV1582495]
3. Cl.Nc1nc(-c2ccccc2)nc2c1ncn2[C@@H]1O[C@H](COS(=O)(=O)NC(=O)c2ccccc2O)[C@@H](O)[C@H]1O [MMV1582488]
4. O=C(N[C@H](Cc1cccc2ccccc12)C(=O)NCCc1c[nH]cn1)C1Cc2ccccc2C1 [MMV1782109]
5. NC1C2CC3CC(C2)CC1C3 (stereo not shown) [MMV180402]

Solution:
1: 1.562; 2: -1.5423; 3: -1.401; 4: -2.59; 5: -0.5217
